test: drug combination growth inhibition, ovarian cancer – cell-based, oncology-focused library, rucaparib conditional, profiling panel (AID 1508598); details: patient-derived ovarian cancer cells, CellTiter-Glo viability, 144 h; at 0.00122 µM; OCI-C5x cells; without rucaparib; stronger effect = lower value
Each entry below carries its recorded viability.
Please reply with the bare figure in % and do not write the unit itself.

Answered examples (3):
COMPOUND	viability (%)
COc1ccccc1-c1cc(Nc2cccc(CS(N)(=O)=O)c2)ncn1	98.9
Nc1ncn([C@@H]2O[C@H](CO)[C@@H](O)[C@@H]2O)c(=O)n1	132
CC[C@]1(O)C[C@@H]2CN(CCc3c([nH]c4ccccc34)[C@@](C(=O)OC)(c3cc4c(cc3OC)N(C=O)[C@@H]3C45CCN4CC=C[C@](CC)([C@H]45)[C@H](OC(C)=O)[C@]3(O)C(=O)OC)C2)C1 (some centres undefined)	98.8

Could you now consider this next compound?
Reported viability for O=C(NCC1(c2nc(-c3ccccc3)cs2)CCOCC1)c1cccc(-c2noc(C(F)(F)F)n2)c1 : what is it?
113

---

Each entry below carries its recorded viability.
experiment: drug combination growth inhibition, ovarian cancer – cell-based, oncology-focused library, rucaparib conditional, profiling panel (AID 1508598); conditions: patient-derived ovarian cancer cells, CellTiter-Glo viability, 144 h; at 0.00488 µM; OCI-P5x cells; with rucaparib 20 µM; stronger effect = lower value; 100% = cells with rucaparib alone
*1 amine or outer side, *2 acyl side, *3 side chain or, on linkers, in order; H or OH if unused. Where a SMILES comes first, the peptide text is derived from it. Bridges are numbered along the chain shown (N, C = ends). Roman numbers before positions name the chains, in order. [ ]: non-standard residue; d: D form. The star is where a group is joined. Hexamethylenediamine = C(CCCN[*:2])CCN[*:1]; Dip = N[C@H](C(=O)O)C(c1ccccc1)c1ccccc1; Chg = N[C@H](C(=O)O)C1CCCCC1; NMeA = CN[C@@H](C)C(=O)O; Cbz = O=C(OCc1ccccc1)*; CH2F = FC*
Please reply with the bare figure in % and do not write the unit itself.

COMPOUND	MEASUREMENT
CN(CC(=O)N(Cc1ccc(C2CCCCC2)cc1)c1ccc(C(=O)O)cc1)S(=O)(=O)c1c(F)c(F)c(F)c(F)c1F	92.6
C[C@H](O[C@H]1OCCN(Cc2n[nH]c(=O)[nH]2)[C@H]1c1ccc(F)cc1)c1cc(C(F)(F)F)cc(C(F)(F)F)c1	110
COc1cccc(-c2cc(F)ccc2[C@H]2Cc3nc(N)nc(C)c3C(=O)N2)n1	53.5

Reported viability for CC1(C)C=C(CN2C/C(=C/c3ccc(F)cc3)C(=O)/C(=C/c3ccc(F)cc3)C2)C(C)(C)N1O : what is it?
74.5

Reported viability for CC(=O)O[C@@]1(C(C)=O)CC[C@H]2[C@@H]3C=C(C)C4=CC(=O)CC[C@]4(C)[C@@H]3CC[C@@]21C : what is it?
99.9

Reported viability for NC(=O)CCCSc1nc(N)nc(-c2c(Cl)cc3c4c(cccc24)COC3)n1 : what is it?
106

Reported viability for O=c1[nH]c(=O)n([C@@H]2C[C@H](O)[C@@H](CO)O2)cc1F : what is it?
105

Reported viability for CC(=O)O[C@]12CO[C@@H]1C[C@H](O)[C@]1(C)C(=O)[C@H](O)C3=C(C)[C@H](OC(=O)[C@H](O)[C@@H](NC(=O)OC(C)(C)C)c4ccccc4)C[C@](O)([C@H](OC(=O)c4ccccc4)C21)C3(C)C (stereo partly drawn) : what is it?
70.1

Reported viability for CC(C)(C)C(=O)Nc1ccc2c(c1)C(=O)C(=O)c1ccccc1-2 : what is it?
78.7

Reported viability for COc1cc([C@H]2c3cc4c(cc3[C@@H](O[C@@H]3O[C@@H]5CO[C@@H](c6cccs6)O[C@H]5[C@H](O)[C@H]3O)[C@H]3COC(=O)[C@H]23)OCO4)cc(OC)c1O : what is it?
100

Reported viability for CN(C)CCOc1ccc(-c2nc(-c3ccc4c(c3)CCC4=NO)c(-c3ccncc3)[nH]2)cc1 : what is it?
70.2

Reported viability for CN(C)CCSSCCNC(=O)C1CCN(C(=O)CSc2ccc(Cl)cc2)CC1 : what is it?
109

Reported viability for CN[C@@H](C)C(=O)N[C@H](C(=O)N1CCC[C@H]1C(=O)N[C@H](C(=O)NCCCCCCNC(=O)[C@@H](NC(=O)[C@@H]1CCCN1C(=O)[C@@H](NC(=O)[C@H](C)NC)C1CCCCC1)C(c1ccccc1)c1ccccc1)C(c1ccccc1)c1ccccc1)C1CCCCC1 (I: H-[NMeA][Chg]P[Dip] / II: H-[NMeA][Chg]P[Dip]; linker I:C-II:C via Hexamethylenediamine) : what is it?
83.7

Reported viability for Nc1nc(F)nc2c1ncn2[C@H]1O[C@H](CO)[C@@H](O)[C@@H]1O : what is it?
102

Reported viability for CC(C)C[C@H](NP(=O)(O)O[C@@H]1O[C@@H](C)[C@H](O)[C@@H](O)[C@H]1O)C(=O)N[C@@H](Cc1c[nH]c2ccccc12)C(=O)O : what is it?
104

Reported viability for O=C(O)c1cc(I)ccc1NC(=O)[C@H](Cc1ccccc1)NCc1ccccc1 : what is it?
98.6

Reported viability for CCNC(=O)c1noc(-c2cc(Cl)c(O)cc2O)c1-c1ccc(OC)cc1 : what is it?
100

Reported viability for CCC1=CC2CN(C1)Cc1c([nH]c3ccccc13)[C@@](C(=O)OC)(c1cc3c(cc1OC)N(C)[C@H]1[C@@](O)(C(=O)OC)[C@H](OC(C)=O)[C@]4(CC)C=CCN5CC[C@@]31[C@H]54)C2 (stereo partly drawn) : what is it?
52.9

Reported viability for Cc1cc2c(C(=O)NC[C@H](C)c3ccccc3)c(O)c(O)cc2c(O)c1-c1c(C)cc2c(C(=O)NC[C@H](C)c3ccccc3)c(O)c(O)cc2c1O : what is it?
97.9

Reported viability for CC[C@]1(O)C[C@@H]2CN(CCc3c([nH]c4ccccc34)[C@@](C(=O)OC)(c3cc4c(cc3OC)N(C=O)[C@@H]3C45CCN4CC=C[C@](CC)([C@H]45)[C@H](OC(C)=O)[C@]3(O)C(=O)OC)C2)C1 (stereo partly drawn) : what is it?
105

Reported viability for COC(=O)C[C@H](NC(=O)[C@H](C)NC(=O)[C@@H](NC(=O)OCc1ccccc1)C(C)C)C(=O)CF (Cbz-Val-Ala-Asp(OMe)-CH2F) : what is it?
102

Reported viability for COc1ccc(C2=N[C@H](c3ccc(Cl)cc3)[C@@H](c3ccc(Cl)cc3)N2C(=O)N2CCNC(=O)C2)c(OC(C)C)c1 : what is it?
95.4

Reported viability for COc1cc(=C2C=c3ccccc3=N2)[nH]/c1=C\c1[nH]c(C)cc1C : what is it?
105

---

Each entry below carries its recorded viability.
test: P. berghei load reduction in hepatocytes – cell-based, HepG2, luciferase luminescence, HepG2 viability, primary screen (AID 624349);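 also: 100% = mean of DMSO negative control wells on the same plate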; conditions: P. berghei liver stage in HepG2, luciferase luminescence, concentration not given here; measured here: HepG2 viability without parasites
Please reply with the bare figure in % and do not write the unit itself.

COMPOUND	viability / %
CC[C@@]1([C@@H]2O[C@@H]([C@H]3O[C@@](O)(CO)[C@H](C)C[C@@H]3C)C[C@@H]2C)CC[C@H]([C@]2(C)CC[C@]3(C[C@H](O)[C@@H](C)[C@@H]([C@@H](C)[C@@H](OC)[C@H](C)C(=O)O)O3)O2)O1 (stereo in doubt)	93.8
CO[C@@H]1[C@@H](O[C@@H]2O[C@H](C)[C@@H](O[C@H]3C[C@@](C)(OC(=O)CC(C)C)[C@@H](O)[C@H](C)O3)[C@H](N(C)C)[C@H]2O)[C@@H](CC=O)C[C@@H](C)[C@@H](O)/C=C/C=C/C[C@@H](C)OC(=O)C[C@H]1OC(C)=O	45.1
Cn1nnnc1SCC1=C(C(=O)O)N2C(=O)[C@@H](NC(=O)[C@H](O)c3ccccc3)[C@H]2SC1	97.6
COc1ccc(CC(C)(N)C(=O)O)cc1OC (centres undefined)	74.8
C=CCOc1ccccc1OCC(O)CNC(C)C (centres undefined)	76.9

Could you now consider this next compound?
Reported viability for COc1cc2ncnc(Nc3ccc(OCc4ccccc4)cc3)c2cc1OC : what is it?
119

---

experiment: viability loss with induced miR-34 in A549 – imaging, A549 dox-inducible miR-34, nuclei and caspase counts, primary screen (AID 1347080); details: A549 miR-34 inducible, Hoechst nuclei count, 48 h; measured here: total cells with miR-34 induction; stronger effect = lower value
Each entry below carries its recorded cell count.
Number only, no unit.

COMPOUND	MEASUREMENT
Cc1cc(C)nc(-c2cnn(CC(=O)Nc3cc(C)nn3-c3ccccn3)c2)n1	5870
CN1CCN(Cc2ccc3sccc3c2)CC1CCO (stereo not drawn)	8240
O=C1C(Cl)=C(N2CCOCC2)C(=O)N1c1ccc(Cl)c(Cl)c1	7840
O=C(O)Cc1c[nH]c2ccccc12	8300
Cc1nc(N=Nc2ccc(C(=O)O)cc2)c(COP(=O)(O)O)c(C=O)c1O	10100

Could you now consider this next compound?
Reported cell count for N#Cc1c(Oc2ccc(F)c(NC(=O)Cc3cccc(C(F)(F)F)c3)c2)ccc2nc(NC(=O)C3CC3)sc12 : what is it?
2200
